biological target: Adrenergic receptor alpha-2 (Homo sapiens) (UniProt P08913+P18825+P18089); assay: Activity at alpha2 adrenergic receptor in human brain prefrontal cortex membranes assessed as effect on UK14304-induced [35S]GTPgammaS binding at 10^-5 M after 120 mins by microbeta liquid scintillation spectrometry (reference value: 132 +/- 2%); assay type: functional; conditions: Membrane
Below, each of the molecules is paired with its reported Emax value.
REPORTED PROPERTY: Emax (%)

{"QUERY SMILES": "Cl.N=C(N)Nc1cc2c(s1)CCCCC2", "RESULT VALUE": 124}
{"QUERY SMILES": "Cl.N=C(N)Nc1nc2c(s1)CCC2", "RESULT VALUE": 126}
{"QUERY SMILES": "Cl.N=C(N)Nc1cc2c(s1)CCCC2", "RESULT VALUE": 111}
{"QUERY SMILES": "Cl.N=C(N)Nc1nc2c(s1)CCCC2", "RESULT VALUE": 105}
{"QUERY SMILES": "Cl.N=C(N)NCCc1cccs1", "RESULT VALUE": 117}
{"QUERY SMILES": "Cl.N#Cc1c(NC(=N)N)sc2c1CCCC2", "RESULT VALUE": 128}
{"QUERY SMILES": "Cl.N=C(N)Nc1cc2c(s1)CCC2", "RESULT VALUE": 111}

---

molecular target: Adrenergic receptor alpha-2 (Homo sapiens, UniProt P08913+P18825+P18089); assay: Activity at alpha2 adrenergic receptor in human brain prefrontal cortex membranes assessed as effect on UK14304-induced [35S]GTPgammaS binding by measuring UK14304 EC50 at 10^-5 M after 120 mins by microbeta liquid scintillation spectrometry (reference value: 0.4 +/- 0.01 uM); type: functional, Membrane
Below, each of the molecules is paired with its reported EC50 value.

{"QUERY SMILES": "Cl.N=C(N)Nc1cc2c(s1)CCCCC2", "UNIT TEXT": "µM", "EC50": 10.7}
{"QUERY SMILES": "Cl.N=C(N)Nc1nc2c(s1)CCC2", "UNIT TEXT": "µM", "EC50": 1.5}
{"QUERY SMILES": "Cl.N#Cc1c(NC(=N)N)sc2c1CCCC2", "UNIT TEXT": "µM", "EC50": 6.6}
{"QUERY SMILES": "Cl.N=C(N)Nc1cc2c(s1)CCC2", "UNIT TEXT": "µM", "EC50": 0.5}
{"QUERY SMILES": "Cl.N=C(N)Nc1nc2c(s1)CCCC2", "UNIT TEXT": "µM", "EC50": 11.4}
{"QUERY SMILES": "Cl.N=C(N)NCCc1cccs1", "UNIT TEXT": "µM", "EC50": 1.7}
{"QUERY SMILES": "Cl.N=C(N)Nc1cc2c(s1)CCCC2", "UNIT TEXT": "µM", "EC50": 0.8}

---

target: Adrenergic receptor alpha-2 (Homo sapiens, UniProt P08913+P18825+P18089); experiment: Displacement of [3H]RX821002 from alpha2 adrenergic receptor in human brain prefrontal cortex membranes after 30 mins by microbeta liquid scintillation spectrometry; design: species or system Membrane
Below, each of the compounds is paired with its reported Ki value.

{"QUERY SMILES": "Cl.N#Cc1c(NC(=N)N)sc2c1CCC2", "UNIT TEXT": "nM", "RELATION SYMBOL": "=", "Ki": 2215}
{"QUERY SMILES": "Cl.N=C(N)Nc1nc2c(s1)CCCC2", "UNIT TEXT": "nM", "RELATION SYMBOL": "=", "Ki": 1205}
{"QUERY SMILES": "Cl.N=C(N)Nc1cc2c(s1)CCC2", "UNIT TEXT": "nM", "RELATION SYMBOL": "=", "Ki": 87.9}
{"QUERY SMILES": "Cl.N#Cc1c(NC(=N)N)sc2c1CCCCC2", "UNIT TEXT": "nM", "RELATION SYMBOL": "=", "Ki": 1198}
{"QUERY SMILES": "Cl.N=C(N)Nc1cc2c(s1)CCCCC2", "UNIT TEXT": "nM", "RELATION SYMBOL": "=", "Ki": 156}
{"QUERY SMILES": "CCOC(=O)c1c(NC(=N)N)sc2c1CCCCC2.Cl", "UNIT TEXT": "nM", "RELATION SYMBOL": ">", "Ki": 100000}
{"QUERY SMILES": "Cl.N=C(N)Nc1ccsc1", "UNIT TEXT": "nM", "RELATION SYMBOL": "=", "Ki": 1968}
{"QUERY SMILES": "Cl.N=C(N)NCCc1cccs1", "UNIT TEXT": "nM", "RELATION SYMBOL": "=", "Ki": 751}
{"QUERY SMILES": "Cl.N=C(N)Nc1cc2c(s1)CCCC2", "UNIT TEXT": "nM", "RELATION SYMBOL": "=", "Ki": 31.3}
{"QUERY SMILES": "Cl.N=C(N)NCc1cccs1", "UNIT TEXT": "nM", "RELATION SYMBOL": "=", "Ki": 3928}
{"QUERY SMILES": "COC(=O)c1sccc1NC(=N)N.Cl", "UNIT TEXT": "nM", "RELATION SYMBOL": ">", "Ki": 100000}
{"QUERY SMILES": "CCOC(=O)c1c(NC(=N)N)sc2c1CCC2.Cl", "UNIT TEXT": "nM", "RELATION SYMBOL": "=", "Ki": 30150}
{"QUERY SMILES": "CCOC(=O)c1c(NC(=N)N)sc2c1CCCC2.Cl", "UNIT TEXT": "nM", "RELATION SYMBOL": "=", "Ki": 9086}
{"QUERY SMILES": "COC(=O)c1ccsc1NC(=N)N.Cl", "UNIT TEXT": "nM", "RELATION SYMBOL": ">", "Ki": 100000}
{"QUERY SMILES": "CCOC(=O)c1c(C)csc1NC(=N)N.Cl", "UNIT TEXT": "nM", "RELATION SYMBOL": "=", "Ki": 66530}
{"QUERY SMILES": "Cl.N#Cc1c(NC(=N)N)sc2c1CCCC2", "UNIT TEXT": "nM", "RELATION SYMBOL": "=", "Ki": 733}
{"QUERY SMILES": "Cl.N=C(N)Nc1nc2c(s1)CCC2", "UNIT TEXT": "nM", "RELATION SYMBOL": "=", "Ki": 706}
